- experimental target: Histone deacetylase 2 (Homo sapiens, UniProt Q92769)
- Sequence (Q92769 whole entry): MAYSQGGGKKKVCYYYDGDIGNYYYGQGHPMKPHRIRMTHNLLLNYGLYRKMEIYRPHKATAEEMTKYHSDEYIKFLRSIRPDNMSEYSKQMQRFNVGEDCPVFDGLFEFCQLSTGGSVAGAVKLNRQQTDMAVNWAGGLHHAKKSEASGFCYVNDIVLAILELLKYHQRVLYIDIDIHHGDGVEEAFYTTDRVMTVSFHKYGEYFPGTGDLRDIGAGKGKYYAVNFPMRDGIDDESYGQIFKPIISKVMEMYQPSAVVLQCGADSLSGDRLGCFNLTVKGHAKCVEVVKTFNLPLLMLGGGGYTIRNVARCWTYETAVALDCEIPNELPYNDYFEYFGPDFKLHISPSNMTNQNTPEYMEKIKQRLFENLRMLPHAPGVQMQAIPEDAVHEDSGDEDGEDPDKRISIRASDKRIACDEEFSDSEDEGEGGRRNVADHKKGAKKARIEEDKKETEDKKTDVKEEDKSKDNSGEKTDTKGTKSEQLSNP
- procedure details: Inhibition of full length human recombinant C-terminal GST-tagged HDAC2 expressed in insect cells using RHKK(Ac) as substrate after 60 mins by fluorimetric method
experimental endpoint: IC50 (nM)

# example entries with known answers
Cc1c(CN(C)C)c2ccccc2n1S(=O)(=O)c1ccc(/C=C/C(=O)NO)cc1	1270
Cc1c(CN(C)C)c2ccccc2n1S(=O)(=O)c1cccc(/C=C/C(=O)NO)c1	1340

(I) CN(C)Cc1cn(Cc2ccc(/C=C/C(=O)NO)cc2)c2ccccc12
(II) CN(C)Cc1cn(Cc2ccc(C(=O)NO)cc2)c2ccccc12
(III) Cc1c(CN(C)C)c2ccccc2n1Cc1ccc(/C=C/C(=O)NO)cc1
Arrange items by their IC50 values in increasing order. Please express your ranking as an ordered list of the labels.
I, III, II
(I: 1120 nM, III: 2380 nM, II: 12200 nM)

* * *

- Species on record: Homo sapiens
- procedure details: Selectivity ratio of IC50 for full length human recombinant C-terminal GST-tagged HDAC2 to IC50 for full length human recombinant N-terminal GST-tagged HDAC6
experimental endpoint: Ratio IC50

# example entries with known answers
CN(C)C(=O)c1cn(S(=O)(=O)c2ccc(/C=C/C(=O)NO)cc2)c2ccccc12	135
Cc1c(CN(C)C)c2ccccc2n1S(=O)(=O)c1cccc(/C=C/C(=O)NO)c1	15
CN(C)C(=O)c1cn(Cc2ccc(/C=C/C(=O)NO)cc2)c2ccccc12	122
CN(C)Cc1cn(Cc2ccc(/C=C/C(=O)NO)cc2)c2ccccc12	25
CN1CCc2c(c3ccccc3n2S(=O)(=O)c2cccc(/C=C/C(=O)NO)c2)C1	16

(A) CN(C)Cc1cn(S(=O)(=O)c2ccc(/C=C/C(=O)NO)cc2)c2ccccc12
(B) Cc1c(CN(C)C)c2ccccc2n1S(=O)(=O)c1ccc(/C=C/C(=O)NO)cc1
(C) CN1CCc2c(c3ccccc3n2Cc2ccc(/C=C/C(=O)NO)cc2)C1
Place the items in sequence of falling Ratio IC50. Please express your ranking as an ordered list of the labels.
A, C, B

* * *

- experimental target: Histone deacetylase 1 (Homo sapiens)
- Sequence (Q13547 whole entry): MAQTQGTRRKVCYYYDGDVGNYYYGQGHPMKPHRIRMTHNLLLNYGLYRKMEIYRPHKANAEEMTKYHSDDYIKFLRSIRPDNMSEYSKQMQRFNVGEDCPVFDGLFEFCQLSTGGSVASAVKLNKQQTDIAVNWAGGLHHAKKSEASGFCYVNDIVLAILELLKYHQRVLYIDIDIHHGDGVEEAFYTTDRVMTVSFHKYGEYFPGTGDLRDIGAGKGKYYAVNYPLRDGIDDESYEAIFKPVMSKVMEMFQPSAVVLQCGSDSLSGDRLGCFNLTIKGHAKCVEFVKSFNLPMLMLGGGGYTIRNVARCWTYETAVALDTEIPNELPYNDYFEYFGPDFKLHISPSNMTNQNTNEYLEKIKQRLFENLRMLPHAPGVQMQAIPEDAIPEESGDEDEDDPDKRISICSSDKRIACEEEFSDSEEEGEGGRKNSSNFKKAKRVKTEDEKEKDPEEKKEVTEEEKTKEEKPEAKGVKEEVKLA
- procedure details: Inhibition of full length human recombinant C-terminal FLAG-His-tagged HDAC1 expressed in Sf21 cells using RHKK(Ac) as substrate after 60 mins by fluorimetric method
pIC50: −log10 of the molar value.
experimental endpoint: pIC50

# example entries with known answers
CN(C)Cc1cn(Cc2ccc(/C=C/C(=O)NO)cc2)c2ccccc12	5.65
CN(C)C(=O)c1cn(S(=O)(=O)c2ccc(/C=C/C(=O)NO)cc2)c2ccccc12	5.70
CN(C)Cc1cn(S(=O)(=O)c2ccc(/C=C/C(=O)NO)cc2)c2ccccc12	5.71
CN(C)C(=O)c1cn(S(=O)(=O)c2cccc(/C=C/C(=O)NO)c2)c2ccccc12	5.16
CN(C)Cc1cn(S(=O)(=O)c2cccc(/C=C/C(=O)NO)c2)c2ccccc12	5.82

(P) Cc1c(CN(C)C)c2ccccc2n1Cc1ccc(C(=O)NO)cc1
(Q) Cc1c(CN(C)C)c2ccccc2n1Cc1ccc(/C=C/C(=O)NO)cc1
Short answer wanted: higher pIC50, P or Q ? Pick one and reply with its label.
Q
(Q: 5.67, P: 5.01)

* * *

- experimental target: Histone deacetylase 2 (Homo sapiens, UniProt Q92769)
- procedure details: Inhibition of full length human recombinant C-terminal GST-tagged HDAC2 expressed in insect cells using RHKK(Ac) as substrate after 60 mins by fluorimetric method
pIC50: −log10 of the molar value.
experimental endpoint: pIC50

# example entries with known answers
CN(C)C(=O)c1cn(Cc2ccc(/C=C/C(=O)NO)cc2)c2ccccc12	5.98
CN(C)Cc1cn(S(=O)(=O)c2cccc(/C=C/C(=O)NO)c2)c2ccccc12	5.79
CN(C)C(=O)c1cn(S(=O)(=O)c2ccc(/C=C/C(=O)NO)cc2)c2ccccc12	5.84

(P) CN1CCc2c(c3ccccc3n2Cc2ccc(/C=C/C(=O)NO)cc2)C1
(Q) CN(C)Cc1cn(S(=O)(=O)c2ccc(/C=C/C(=O)NO)cc2)c2ccccc12
(R) CN1CCc2c(c3ccccc3n2S(=O)(=O)c2cccc(/C=C/C(=O)NO)c2)C1
Arrange items by their pIC50 values in increasing order. Please express your ranking as an ordered list of the labels.
R, P, Q
(R: 5.50, P: 5.78, Q: 6.01)
